- Experimental Protocol: Assessment of solubility: HT solubility in pION buffer, UV spectrophotometry
- Conditions: pION system solution buffer, pH 4.5, pH 4.5, aqueous buffer, kinetic from dmso stock, Solubility (pH 4.5), pH 4.5 buffer, 16-19 h incubation, 1.0% DMSO
Measured Property: solubility (µg/mL)

Some solved entries appear below for comparison.
> print(dat)
                                   compound  measured.property  value.observed
1  Cc1ccc(OCc2ccc(C(=O)N3CCCCC3)cc2C)c(-c2csc(N3CC4CCC(C3)C4C(=O)O)n2)c1 (centres unmarked)         solubility            0.35
2  Cc1cc(CN2CCS(=O)(=O)CC2)ccc1COc1c(C)cccc1-c1csc(N2C3CCC2CC(C(=O)O)C3)n1 (centres unmarked)         solubility             9.5
3  Cc1cc(C(=O)N2CCCCC2)ccc1COc1ccc(Cl)cc1-c1csc(N2CC3CCC(C2)C3C(=O)O)n1 (centres unmarked)         solubility             0.3

[A] Cc1cc(CN2CCS(=O)(=O)CC2)ccc1COc1ccc(C#N)cc1-c1csc(N2CCC(C(=O)O)CC2)n1
[B] Cc1ccc(OCc2ccc(CN3CCS(=O)(=O)CC3)cc2C)c(-c2csc(N3CC[C@@H](C(=O)O)[C@H]3C)n2)c1
[C] Cc1ccc(OCc2ccc(C(C)N3CCOCC3)cc2C)c(-c2csc(N3CC4CCC(C3)C4C(=O)O)n2)c1 (centres unmarked)
Qu. I would appreciate it if you could sort these 3 compounds by solubility, starting from the smallest number. Submit the labels in the order that the ranking request calls for.
Ans. B, A, C

---

- Experimental Protocol: Assessment of solubility: HT solubility in pION buffer, UV spectrophotometry
- Conditions: pION system solution buffer, pH 7.4, pH 7.4, aqueous buffer, kinetic from dmso stock, Solubility (pH 7.4), pH 7.4 buffer, 16-19 h incubation, 1.0% DMSO
Measured Property: solubility (µg/mL)

> print(dat)
                         structure.notation  value.observed
1  Cc1ccc(OCc2ccc(CN3CCOCC3)cc2C)c(-c2csc(N3CCC(C)(C(=O)O)CC3)n2)c1              31

[I] COCCN(C)Cc1ccc(COc2ccc(C#N)cc2-c2csc(N3CCC(C(=O)O)CC3)n2)c(C)c1
[II] Cc1cc(CN2CCC(O)CC2)ccc1COc1ccc(C#N)cc1-c1csc(N2CCC(C(=O)O)CC2)n1
Qu. Given I and II , report the one with the higher recorded solubility. Response format: the label of the selected entry.
Ans. I
(I: 36 µg/mL, II: 24 µg/mL)

---

- Experimental Protocol: Assessment of solubility: HT solubility in pION buffer, UV spectrophotometry
- Conditions: pH 6.8, aqueous buffer, kinetic from dmso stock, Solubility (pH 6.8), pH 6.8
Measured Property: solubility (µg/mL)

> print(dat)
                                   molecule  value.observed
1  Cc1ccc(OCc2ccc(C(=O)N(C)CCN(C)C)cc2C)c(-c2csc(N3C[C@H]4CC[C@@H](C3)[C@H]4C(=O)O)n2)c1              67
2  Cc1ccc(OCc2ccc(CN(C)[C@@H]3CCS(=O)(=O)C3)cc2C)c(-c2csc(N3C[C@H]4CC[C@@H](C3)[C@H]4C(=O)O)n2)c1             1.3

[a] Cc1ccc(OCc2ccc(CN3CCN(C(=O)C4CC4)CC3)cc2C)c(-c2csc(N3CC[C@@]4(C(=O)O)C[C@H]4C3)n2)c1
[b] Cc1ccc(OCc2ccc(CN3CCOCC3)cc2C)c(-c2csc(N3CCCC(C)(C(=O)O)CC3)n2)c1 (stereo not shown)
Qu. Given a and b , report the one with the higher recorded solubility. Response format: the label of the selected entry.
Ans. b
(b: 0.6 µg/mL, a: 0.3 µg/mL)

[P] Cc1ccc(OCc2ccc(C(=O)N3CC[C@@H](N(C)C)C3)cc2C)c(-c2csc(N3C[C@H]4CC[C@@H](C3)[C@H]4C(=O)O)n2)c1
[Q] Cc1ccc(OCc2ccc(C(=O)N3CCC(C#N)CC3)cc2C)c(-c2csc(N3C[C@H]4CC[C@@H](C3)[C@H]4C(=O)O)n2)c1
Qu. Given P and Q , report the one with the higher recorded solubility. Response format: the label of the selected entry.
Ans. P
(P: 61 µg/mL, Q: 39 µg/mL)

[I] CCOCCN(C)C(=O)c1ccc(COc2ccc(C)cc2-c2csc(N3C[C@H]4CC[C@@H](C3)[C@H]4C(=O)O)n2)c(C)c1
[II] Cc1ccc(OCc2ccc(CN3CCOC(C)C3)cc2C#N)c(-c2csc(N3C[C@H]4CC[C@@H](C3)[C@H]4C(=O)O)n2)c1 (stereo partly shown)
Qu. Could you tell me which of these two has the smaller solubility figure? First: I Second: II Response format: the label of the selected entry.
Ans. II

[a] Cc1ccc(OCc2c(C)cc(C(=O)N3CCOCC3)cc2C)c(-c2csc(N3C[C@H]4CC[C@@H](C3)[C@H]4C(=O)O)n2)c1
[b] CCN(C)C(=O)c1ccc(COc2ccc(C)cc2-c2csc(N3C[C@H]4CC[C@@H](C3)[C@H]4C(=O)O)n2)c(C)c1
Qu. Given a and b , report the one with the higher recorded solubility. Response format: the label of the selected entry.
Ans. a

---

- Experimental Protocol: Assessment of solubility: HT solubility in pION buffer, UV spectrophotometry
- Conditions: pION system solution buffer, pH 7.4, pH 7.4, aqueous buffer, kinetic from dmso stock, Solubility (pH 7.4), pH 7.4 buffer, 16-19 h incubation, 1.0% DMSO
Measured Property: solubility

> print(dat)
                                   molecule  measured.property  value.observed
1  Cc1cc(C(=O)N2CCCCC2)ccc1COc1ccccc1-c1csc(C2=CCC(C(=O)O)CC2)n1 (stereo not shown)         solubility      > 51 µg/mL
2  Cc1ccc(OCc2ccc(C(=O)N3CCCCC3)cc2C)c(-c2nc(N3C[C@H]4CC[C@@H](C3)[C@H]4C(=O)O)sc2F)c1         solubility      > 59 µg/mL
3  Cc1ccc(OCc2ccc(CN3CCOCC3)cc2C)c(-c2csc(N3CC[C@@H](C(=O)O)[C@@H](C)C3)n2)c1 [Compound 173]         solubility      > 64 µg/mL

Now look at this one.
Qu. What solubility value was documented for this molecule, Cc1cc(CN2CCCCC2)ccc1COc1c(C)cccc1-c1csc(N2CCC(C(=O)O)CC2)n1 ?
Ans. 33 µg/mL

---

- Experimental Protocol: Assessment of solubility: HT solubility in pION buffer, UV spectrophotometry
- Conditions: pION system solution buffer, pH 4.5, pH 4.5, aqueous buffer, kinetic from dmso stock, Solubility (pH 4.5), pH 4.5 buffer, 16-19 h incubation, 1.0% DMSO
Measured Property: solubility (µg/mL)

Some solved entries appear below for comparison.
> print(dat)
                                   molecule  reading.unit  value.observed
1  Cc1cc(CN2CCOCC2)ccc1COc1c(Cl)cccc1-c1csc(N2CCC(C(=O)O)CC2)n1         µg/mL              30
2  Cc1ccc(OCc2ccc(C(=O)N3CCN(C)C(=O)C3)c(C)c2)c(-c2csc(N3C[C@H]4CC[C@@H](C3)[C@H]4C(=O)O)n2)c1         µg/mL               1

[1] Cc1cc(CN2CCS(=O)(=O)CC2)ccc1COc1ccc(C#N)cc1-c1csc(N2CC3CCC(C2)C3C(=O)O)n1 (stereo not drawn)
[2] Cc1ccc(OCc2ccc(C(=O)N3CC[C@@H](O)C3)cc2C)c(-c2csc(N3C[C@H]4CC[C@@H](C3)[C@H]4C(=O)O)n2)c1
[3] Cc1cc(CN2CCS(=O)(=O)CC2)ccc1COc1c(-c2csc(N3CCC(C(=O)O)CC3)n2)cccc1C(F)(F)F
[4] Cc1ccc(OCc2ccc(C(=O)N3CCC[C@H](O)C3)cc2C)c(-c2csc(N3C[C@H]4CC[C@@H](C3)[C@H]4C(=O)O)n2)c1
Qu. I would appreciate it if you could sort these 4 molecules by solubility, starting from the smallest number. Submit the labels in the order that the ranking request calls for.
Ans. 3, 4, 1, 2

---

- Experimental Protocol: Assessment of solubility: HT solubility in pION buffer, UV spectrophotometry
- Conditions: pION system solution buffer, pH 7.4, pH 7.4, aqueous buffer, kinetic from dmso stock, Solubility (pH 7.4), pH 7.4 buffer, 16-19 h incubation, 1.0% DMSO
Recorded solubility values for a group of compounds are listed next.

> print(dat)
                                   compound  value.observed
1  Cc1cc(CN2CCS(=O)(=O)CC2)ccc1COc1ccc(F)cc1-c1csc(N2CC3CCC(C2)C3C(=O)O)n1 (stereo not shown) [Compound 275]         4 µg/mL
2  Cc1cc(CN2CCOCC2)ccc1COc1ccc(C#N)cc1-c1csc(N2CCC(C(=O)O)CC2)n1 [Compound 168]      > 57 µg/mL
3  Cc1cc(CN2CCOCC2)ccc1COc1c(C)cccc1-c1csc(N2C[C@H]3CC[C@@H](C2)[C@H]3C(=O)O)n1 [Compound 206]      > 58 µg/mL

Qu. What solubility value was documented for this compound, Cc1cc(CN2CCOCC2)ccc1COc1c(-c2csc(N3CCC(C(=O)O)CC3)n2)cccc1C(F)(F)F [Compound 113] ?
Ans. > 57 µg/mL
